assay: Pharmacokinetics of Compound A, phase I dose-escalation part (plasma); type: in vivo, human; details: human, plasma, oral, 80 mg, C1D1, 80 mg BID (n = 3), median
ENDPOINT NAME: Tmax (h)
Output spec: scalar in h, unitless text.

### Prompt Please report the recorded Tmax for C=CCN1CC(=O)N2[C@@H](Cc3ccc(O)cc3F)C(=O)N(Cc3cccc(N4CC(N5CCN(CC)CC5)C4)n3)C[C@@H]2N1C(=O)NCc1ccccc1 [Compound A] .
### Response 2

---

assay: Pharmacokinetics of Compound A, phase I dose-escalation part (plasma); assay type: in vivo, human; settings: human, plasma, oral, 30 mg, C1D1, 30 mg BID (n = 3), median
ENDPOINT NAME: Tmax (h)
Output spec: scalar in h, unitless text.

### Prompt Please report the recorded Tmax for C=CCN1CC(=O)N2[C@@H](Cc3ccc(O)cc3F)C(=O)N(Cc3cccc(N4CC(N5CCN(CC)CC5)C4)n3)C[C@@H]2N1C(=O)NCc1ccccc1 .
### Response 2

---

assay: Pharmacokinetics of Compound A, phase I dose-escalation part (plasma); assay type: in vivo, human; details: human, plasma, oral, 120 mg, C1D8, 120 mg BID (n = 3), geometric mean; read-out: C max, ss
ENDPOINT NAME: Cmax

### Prompt Please report the recorded Cmax for C=CCN1CC(=O)N2[C@@H](Cc3ccc(O)cc3F)C(=O)N(Cc3cccc(N4CC(N5CCN(CC)CC5)C4)n3)C[C@@H]2N1C(=O)NCc1ccccc1 .
### Response 737 ng/mL

---

test: Pharmacokinetics of Compound A, phase I dose-escalation part (plasma); format: in vivo, human; details: human, plasma, oral, 45 mg, C1D8, 45 mg BID (n = 4), geometric mean; read-out: C max, ss
ENDPOINT NAME: Cmax (ng/mL)
Output spec: scalar in ng/mL, unitless text.

### Prompt Please report the recorded Cmax for C=CCN1CC(=O)N2[C@@H](Cc3ccc(O)cc3F)C(=O)N(Cc3cccc(N4CC(N5CCN(CC)CC5)C4)n3)C[C@@H]2N1C(=O)NCc1ccccc1 .
### Response 199

---

test: Pharmacokinetics of Compound A, phase I dose-escalation part (plasma); type: in vivo, human; conditions: human, plasma, oral, 120 mg, C1D8, 120 mg BID (n = 3), geometric mean; read-out: AUC (0-tau), ss
ENDPOINT NAME: AUC (ng·h/mL)
Output spec: scalar in ng·h/mL, unitless text.

### Prompt Please report the recorded AUC for C=CCN1CC(=O)N2[C@@H](Cc3ccc(O)cc3F)C(=O)N(Cc3cccc(N4CC(N5CCN(CC)CC5)C4)n3)C[C@@H]2N1C(=O)NCc1ccccc1 .
### Response 2460

---

assay: Pharmacokinetics of Compound A, phase I dose-escalation part (plasma); assay type: in vivo, human; conditions: human, plasma, oral, 100 mg, C1D8, 100 mg BID (n = 6), geometric mean; read-out: C max, ss
ENDPOINT NAME: Cmax (ng/mL)
Output spec: scalar in ng/mL, unitless text.

### Prompt Please report the recorded Cmax for C=CCN1CC(=O)N2[C@@H](Cc3ccc(O)cc3F)C(=O)N(Cc3cccc(N4CC(N5CCN(CC)CC5)C4)n3)C[C@@H]2N1C(=O)NCc1ccccc1 .
### Response 862

---

test: Pharmacokinetics of Compound A, phase I dose-escalation part (plasma); format: in vivo, human; conditions: human, plasma, oral, 120 mg, C1D8, 120 mg BID (n = 8), based on n = 7 subjects, median
ENDPOINT NAME: Tmax (h)
Output spec: scalar in h, unitless text.

### Prompt Please report the recorded Tmax for C=CCN1CC(=O)N2[C@@H](Cc3ccc(O)cc3F)C(=O)N(Cc3cccc(N4CC(N5CCN(CC)CC5)C4)n3)C[C@@H]2N1C(=O)NCc1ccccc1 .
### Response 1
